Data origin, for the record: patent US4826973A

# ASSAY REMARKS: Intrinsic dissolution rate of crystalline forms
# Format: physicochemical
# EXPERIMENTAL PARAMETERS: TABLE II, crystalline forms of aztreonam
PROPERTY MEASURED: Intrinsic Dissolution Rate

> print(dat)
                                   molecule           property.measured  result
1  C[C@H]1[C@H](NC(=O)/C(=N\OC(C)(C)C(=O)O)c2csc(N)n2)C(=O)N1S(=O)(=O)O [δ-Form]  Intrinsic Dissolution Rate    fast
2  C[C@H]1[C@H](NC(=O)/C(=N\OC(C)(C)C(=O)O)c2csc(N)n2)C(=O)N1S(=O)(=O)O [α-Form]  Intrinsic Dissolution Rate    slow
3  C[C@H]1[C@H](NC(=O)/C(=N\OC(C)(C)C(=O)O)c2csc(N)n2)C(=O)N1S(=O)(=O)O [β-Form]  Intrinsic Dissolution Rate    fast
4  C[C@H]1[C@H](NC(=O)/C(=N\OC(C)(C)C(=O)O)c2csc(N)n2)C(=O)N1S(=O)(=O)O [γ-Form]  Intrinsic Dissolution Rate    fast
